Where do these numbers come from? They come from the supplement of paper PMC6555819.

System: PPARg:RXRa IVT, anti-PPARg (NR concentration 270 nM, RXRa partner concentration 90 nM)
Test: PBM binding z-score (relative to random genomic background probes); higher = stronger binding; sequences stand for … in GC…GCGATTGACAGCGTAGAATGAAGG
Classification scheme (PBM binding z-score): lowest: < 1; middle: ≥ 1 and < 4; highest: ≥ 4

Examples with answers:
>  <residue-codes>
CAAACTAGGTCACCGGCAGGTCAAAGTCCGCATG

>  <target-system>
PPARg:RXRa IVT, anti-PPARg (NR concentration 270 nM, RXRa partner concentration 90 nM)

>  <assigned-label>
highest

$$$$
>  <residue-codes>
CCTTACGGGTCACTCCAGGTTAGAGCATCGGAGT

>  <target-system>
PPARg:RXRa IVT, anti-PPARg (NR concentration 270 nM, RXRa partner concentration 90 nM)

>  <assigned-label>
middle

$$$$
>  <residue-codes>
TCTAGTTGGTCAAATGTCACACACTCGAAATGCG

>  <target-system>
PPARg:RXRa IVT, anti-PPARg (NR concentration 270 nM, RXRa partner concentration 90 nM)

>  <assigned-label>
middle

$$$$
>  <residue-codes>
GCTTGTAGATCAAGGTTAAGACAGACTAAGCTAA

>  <target-system>
PPARg:RXRa IVT, anti-PPARg (NR concentration 270 nM, RXRa partner concentration 90 nM)

>  <assigned-label>
middle

$$$$
>  <residue-codes>
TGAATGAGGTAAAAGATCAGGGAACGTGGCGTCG

>  <target-system>
PPARg:RXRa IVT, anti-PPARg (NR concentration 270 nM, RXRa partner concentration 90 nM)

>  <assigned-label>
middle

$$$$

Lab note: which band did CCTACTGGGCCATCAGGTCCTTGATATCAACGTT land in?
middle

Lab note: which band did CAAACTAGGTCAAAGGTCAATGTCGAGCCAACCA land in?
highest

====

Test system: PPARg homodimer (NR concentration 180 nM)
Assay: PBM binding z-score (relative to random genomic background probes); higher = stronger binding; sequences stand for … in GC…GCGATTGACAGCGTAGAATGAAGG
Mark FALSE for PBM binding z-score values under 2, and TRUE for everything at or above.

Examples with answers:
>  <residue-codes>
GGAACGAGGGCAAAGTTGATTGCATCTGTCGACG

>  <assigned-label>
FALSE

$$$$
>  <residue-codes>
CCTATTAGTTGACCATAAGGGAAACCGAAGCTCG

>  <assigned-label>
TRUE

$$$$
>  <residue-codes>
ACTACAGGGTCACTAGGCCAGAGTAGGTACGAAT

>  <assigned-label>
TRUE

$$$$
>  <residue-codes>
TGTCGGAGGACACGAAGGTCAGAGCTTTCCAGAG

>  <assigned-label>
FALSE

$$$$

# bool: PBM binding z-score of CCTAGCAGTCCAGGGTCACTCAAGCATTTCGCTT >= 2
FALSE

# bool: PBM binding z-score of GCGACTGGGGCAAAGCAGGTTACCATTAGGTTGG >= 2
FALSE

# bool: PBM binding z-score of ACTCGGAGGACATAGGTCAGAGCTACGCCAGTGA >= 2
FALSE

# bool: PBM binding z-score of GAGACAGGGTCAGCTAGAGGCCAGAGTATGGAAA >= 2
TRUE

# bool: PBM binding z-score of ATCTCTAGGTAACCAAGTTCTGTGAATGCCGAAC >= 2
FALSE

# bool: PBM binding z-score of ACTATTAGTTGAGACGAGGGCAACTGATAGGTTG >= 2
FALSE

====

System: PPARg DBDmut:RXRa IVT, anti-PPARg (DBD mutation: PPARg1 K132A/R137A, NR concentration 270 nM, RXRa partner concentration 90 nM)
Assay: PBM binding z-score (relative to random genomic background probes); higher = stronger binding; sequences stand for … in GC…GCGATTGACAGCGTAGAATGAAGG
quantity-measured: PBM binding z-score
Answers are plain numbers.

The examples below pair each entry with its known result.
>  <residue-codes>
CTCGAAAGGTCGGTTGAGGGGAGTATACGGATAA

>  <reading>
0.19

$$$$
>  <residue-codes>
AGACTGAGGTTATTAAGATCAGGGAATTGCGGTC

>  <reading>
0.238

$$$$
>  <residue-codes>
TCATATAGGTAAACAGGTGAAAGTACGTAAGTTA

>  <reading>
2.79

$$$$
>  <residue-codes>
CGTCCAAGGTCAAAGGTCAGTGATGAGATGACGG

>  <reading>
0.972

$$$$
>  <residue-codes>
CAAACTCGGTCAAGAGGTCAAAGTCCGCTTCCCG

>  <reading>
1.06

$$$$

Provide reported PBM binding z-score for each item, in the same order as listed.
1. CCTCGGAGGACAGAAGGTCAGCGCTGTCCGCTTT
2. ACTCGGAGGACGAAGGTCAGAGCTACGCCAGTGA
3. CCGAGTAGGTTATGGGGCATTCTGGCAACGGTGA
4. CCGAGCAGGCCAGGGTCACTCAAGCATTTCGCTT

-1.29
-1.22
-0.237
-1.99

Provide reported PBM binding z-score for each item, in the same order as listed.
1. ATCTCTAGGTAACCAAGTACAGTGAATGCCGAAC
2. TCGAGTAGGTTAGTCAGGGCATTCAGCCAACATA
3. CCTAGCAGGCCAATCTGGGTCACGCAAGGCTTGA

1. 1.88
2. 0.0156
3. 0.23

====

Task for the reader: assign each of the following sequences its reported PBM binding z-score.
System: LXRa:RXRa (NR concentration 270 nM, RXRa partner concentration 90 nM)
Experiment: PBM binding z-score (relative to random genomic background probes); higher = stronger binding; sequences stand for … in GC…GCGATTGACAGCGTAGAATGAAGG

The examples below pair each entry with its known result.
>  <residue-codes>
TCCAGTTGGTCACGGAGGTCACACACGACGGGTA

>  <PBM binding z-score>
3.57

$$$$
>  <residue-codes>
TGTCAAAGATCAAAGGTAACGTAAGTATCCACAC

>  <PBM binding z-score>
1.08

$$$$
>  <residue-codes>
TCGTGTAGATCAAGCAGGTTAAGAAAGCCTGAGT

>  <PBM binding z-score>
0.107

$$$$
>  <residue-codes>
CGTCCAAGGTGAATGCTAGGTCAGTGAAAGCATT

>  <PBM binding z-score>
1.19

$$$$
>  <residue-codes>
CCTACTGGGCCACGAAAGGTCAGTGATTCAGTGA

>  <PBM binding z-score>
3.12

$$$$

Provide reported PBM binding z-score for each item, in the same order as listed.
1. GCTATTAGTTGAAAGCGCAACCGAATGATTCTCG
2. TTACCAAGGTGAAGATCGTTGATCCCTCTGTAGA
3. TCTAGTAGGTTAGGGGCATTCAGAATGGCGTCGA
4. ATCTCTAGGTACAAGTTCAGTGAATCCCGAGGAT
5. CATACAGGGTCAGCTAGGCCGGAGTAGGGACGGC
6. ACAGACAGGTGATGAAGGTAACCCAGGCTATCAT
7. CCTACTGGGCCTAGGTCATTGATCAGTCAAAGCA

[-0.353, 0.08, 0.688, 0.339, 2.61, -0.103, 1.42]

====

System: PPARg:RXRa 270nM:90nM, anti-RXR (NR concentration 270 nM, RXRa partner concentration 90 nM)
Experiment: PBM binding z-score (relative to random genomic background probes); higher = stronger binding; sequences stand for … in GC…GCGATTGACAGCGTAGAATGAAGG
quantity-measured: PBM binding z-score
Give bare numbers.

The examples below pair each entry with its known result.
>  <residue-codes>
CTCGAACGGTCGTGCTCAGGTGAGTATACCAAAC

>  <reading>
-0.662

$$$$
>  <residue-codes>
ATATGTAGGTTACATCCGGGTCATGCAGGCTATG

>  <reading>
5.18

$$$$
>  <residue-codes>
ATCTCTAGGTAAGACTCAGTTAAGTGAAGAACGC

>  <reading>
-0.0342

$$$$
>  <residue-codes>
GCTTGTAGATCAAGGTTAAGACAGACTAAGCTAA

>  <reading>
2.16

$$$$
>  <residue-codes>
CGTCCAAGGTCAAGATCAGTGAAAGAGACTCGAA

>  <reading>
5.2

$$$$
>  <residue-codes>
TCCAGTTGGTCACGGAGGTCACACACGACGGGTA

>  <reading>
3.83

$$$$
>  <residue-codes>
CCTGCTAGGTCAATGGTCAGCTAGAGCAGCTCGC

>  <reading>
5.05

$$$$
>  <residue-codes>
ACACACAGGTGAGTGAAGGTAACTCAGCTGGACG

>  <reading>
0.0284

$$$$
>  <residue-codes>
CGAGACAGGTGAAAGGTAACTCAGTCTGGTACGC

>  <reading>
6.27

$$$$
>  <residue-codes>
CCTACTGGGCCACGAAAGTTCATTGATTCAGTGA

>  <reading>
2.77

$$$$

Provide reported PBM binding z-score for each item, in the same order as listed.
1. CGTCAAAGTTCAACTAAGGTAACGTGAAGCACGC
2. GATAGAGGGTCAAGGCCAGAGTACGCGTATTGAT

1. 5.8
2. 4.24

Provide reported PBM binding z-score for each item, in the same order as listed.
1. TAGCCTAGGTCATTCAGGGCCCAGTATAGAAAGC
2. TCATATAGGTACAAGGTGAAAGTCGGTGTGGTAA
3. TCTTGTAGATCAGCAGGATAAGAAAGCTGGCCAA
4. TCTGCTAGGTCAACGATGGTCACCTAATCTGCTA
5. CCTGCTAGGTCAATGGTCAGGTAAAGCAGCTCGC

[2.34, 5.75, 1.01, 3.36, 5.09]
